Where these numbers come from: patent US9695151B2

# Experimental Target: CYP11B2 (Homo sapiens (Human), UniProt P19099)
# Sequence (P19099 25-503): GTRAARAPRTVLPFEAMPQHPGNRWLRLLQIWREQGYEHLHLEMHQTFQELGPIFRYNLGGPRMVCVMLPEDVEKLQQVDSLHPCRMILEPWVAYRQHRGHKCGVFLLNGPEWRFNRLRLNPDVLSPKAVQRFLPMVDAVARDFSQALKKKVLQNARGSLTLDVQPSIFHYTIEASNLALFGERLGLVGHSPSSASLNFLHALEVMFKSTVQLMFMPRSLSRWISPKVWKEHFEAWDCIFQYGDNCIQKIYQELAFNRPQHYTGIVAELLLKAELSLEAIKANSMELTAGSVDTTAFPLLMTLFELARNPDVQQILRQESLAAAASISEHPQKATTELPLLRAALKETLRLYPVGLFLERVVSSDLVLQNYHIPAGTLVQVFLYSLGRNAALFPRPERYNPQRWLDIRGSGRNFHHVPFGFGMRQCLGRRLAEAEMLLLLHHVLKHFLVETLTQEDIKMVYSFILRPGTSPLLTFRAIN
# Assay: G-402 cellular enzyme assay, human CYP11B2 (aldosterone release)
# Setup Conditions: G-402 cells, 1 μM Deoxycorticosterone
Kindly state pEC50 for each of the entries shown.
As a rule, pEC50 stands for the negative log10 of the concentration, concentration in M.

Input: Form field: reported pEC50 of CC(C)S(=O)(=O)N1CCC(N(C)c2cncc(N3C(=O)c4ccc(Cl)cc4C3(C)C)c2)C1 (single isomer, unassigned) [Example 16]
Output: 9.30

Input: // returns reported pEC50 for input CCCS(=O)(=O)N1CCC(N(C)c2cncc(N3C(=O)c4ccc(Cl)cc4C3(C)C)c2)C1 (single isomer, unassigned) [Example 17]
Output: 9.00

Input: Quick one: pEC50 of `CCC(=O)N1CC(Nc2cncc(N3CCc4cc(Cl)ccc4C3=O)c2)C1` ?
Output: 6.75

Input: Need pEC50 of CCS(=O)(=O)N1CC(Nc2cncc(N3C(=O)c4ccc(Cl)cc4C3C)c2)C1 (stereo not shown) , thanks.
Output: 7.15

* * *

# Experimental Target: CYP11B2 (Homo sapiens (Human), UniProt P19099)
# Assay: G-402 cellular enzyme assay, human CYP11B2 (aldosterone release)
# Setup Conditions: G-402 cells, 1 μM Deoxycorticosterone
For each entry below, report its EC50 value.
# number only, unit µM dropped from output

Input: Quick one: EC50 for `CCC(=O)N1CC(Nc2cncc(N3C(=O)c4ccc(Cl)cc4C3(C)C)c2)C1` ?
Output: 0.01

Input: Entry CCC(=O)N1CC(Nc2cncc(N3C(=O)c4ccc(Cl)cc4C3C)c2)C1 (stereo not shown) has what EC50?
Output: 0.065

Input: Could you tell me which EC50 is on file for `CCCS(=O)(=O)N1CC(N(C)c2cncc(N3C(=O)c4ccc(Cl)cc4C3(C)C)c2)C1` ?
Output: 0.0006

Input: GET /values?readout=EC50&item= `CCS(=O)(=O)N1CC(Nc2cncc(N3CCc4cc(Cl)ccc4C3=O)c2)C1`
Output: 0.061

Input: Could you tell me which EC50 is on file for `CC(=O)N1CC2(CC(Nc3cncc(N4C(=O)c5ccc(Cl)cc5C4(C)C)c3)C2)C1` ?
Output: 0.449

Input: What does the record list as EC50 for `CC(C)S(=O)(=O)N1CC2(CC(Nc3cncc(N4C(=O)c5ccc(Cl)cc5C4(C)C)c3)C2)C1` ?
Output: 0.011

Input: Query (molecule): CC1(C)c2cc(Cl)ccc2C(=O)N1c1cncc(NC2CCCN(S(C)(=O)=O)C2)c1 (single isomer, unassigned) [Example 23] ; field requested: EC50
Output: 1.2

Input: Which measured EC50 value corresponds to CCC(=O)N1CC(Nc2cncc(N3C(=O)c4ccc(Cl)cc4[C@H]3C)c2)C1 (single isomer, unassigned) ?
Output: 0.092

Input: Requested read-out: EC50. Entry: `CC1(C)c2cc(Cl)ccc2C(=O)N1c1cncc(NC2CN(S(C)(=O)=O)C2)c1`
Output: 0.017

Input: Form field: reported EC50 of `CCS(=O)(=O)N1CC(Nc2cncc(N3C(=O)c4ccc(Cl)cc4C3(C)C)c2)C1`
Output: 0.008

Input: Give the measured EC50 of `CC(C)S(=O)(=O)N1CC(Nc2cncc(N3CCc4cc(Cl)ccc4C3=O)c2)C1` .
Output: 0.034

Input: Name the recorded EC50 for `CCS(=O)(=O)N1CC2(CC(Nc3cncc(N4C(=O)c5ccc(Cl)cc5C4(C)C)c3)C2)C1` .
Output: 0.01

Input: For the molecule `CCC(=O)N1CCC(N(C)c2cncc(N3C(=O)c4ccc(Cl)cc4C3(C)C)c2)CC1` , what EC50 is on record?
Output: 0.0007

Input: Record request: EC50 value, item `CCC(=O)N1CC(N(C)c2cncc(N3C(=O)c4ccc(Cl)cc4C3(C)C)c2)C1`
Output: 0.002

Input: State the recorded EC50 for this entry: `CCC(=O)N1CC2(CC(Nc3cncc(N4C(=O)c5ccc(Cl)cc5C4(C)C)c3)C2)C1`
Output: 0.044

Input: Which EC50 reading was recorded for the molecule CCS(=O)(=O)N1CCCC(Nc2cncc(N3C(=O)c4ccc(Cl)cc4C3(C)C)c2)C1 (single isomer, unassigned) [Example 25] ?
Output: 0.443

Input: Item `CC(=O)N1CC(Nc2cncc(N3C(=O)c4ccc(Cl)cc4C3(C)C)c2)C1` has what recorded EC50?
Output: 0.038

Input: Could you tell me which EC50 is on file for `CC(=O)N1CC(N(C)c2cncc(N3C(=O)c4ccc(Cl)cc4C3(C)C)c2)C1` ?
Output: 0.012

Input: Find the recorded EC50 belonging to `CCC(=O)N1CCC(Nc2cncc(N3C(=O)c4ccc(C#N)cc4C3(C)C)c2)CC1` and report it.
Output: 0.022

Input: Name the reported EC50 value associated with the molecule `CN(c1cncc(N2C(=O)c3ccc(Cl)cc3C2(C)C)c1)C1CN(S(C)(=O)=O)C1`
Output: 0.003

Input: May I ask what EC50 has been recorded for `CCS(=O)(=O)N1CCC(Nc2cncc(N3C(=O)c4ccc(C#N)cc4C3(C)C)c2)CC1` ?
Output: 0.013

Input: So what's the measured EC50 for this one? CCC(=O)N1CC(Nc2cncc(N3C(=O)c4ccc(Cl)cc4[C@@H]3C)c2)C1 (single isomer, unassigned)
Output: 0.154

Input: For the molecule `CC(C)S(=O)(=O)N1CC(N(C)c2cncc(N3C(=O)c4ccc(Cl)cc4C3(C)C)c2)C1` , what EC50 is on record?
Output: 0.0005

Input: Need EC50, item `CC(=O)N1CC(Nc2cncc(N3CCc4cc(Cl)ccc4C3=O)c2)C1`
Output: 0.215

Input: For the molecule CCS(=O)(=O)N1CC(Nc2cncc(N3C(=O)c4ccc(Cl)cc4[C@@H]3C)c2)C1 (single isomer, unassigned) , what EC50 is on record?
Output: 0.012
